Origin of the recorded values: ChEMBL document CHEMBL1133153

# Tested on: MCF7
# assay.remarks: The compound was tested in vitro for its antitumor activity against human breast cell line MCF-7
# Assay type: functional, cell-based
outcome.measure: pIC50
Please note pIC50 is a logarithmic value: minus log10 of concentration in mol/L. Answer with that number alone.

pIC50 for Oc1cccc(-c2nc3ccccc3s2)c1 ?
4.29

Continue with Oc1ccc(-c2nc3ccccc3s2)cc1
4.27

* * *

Field: IC50. Provide a value for each of the compounds that follow.
# System: MDA-MB-468
# assay.remarks: The compound was tested in vitro for its antitumor activity against human breast cell line MDA-468
# Type: functional, cell-based
Quick note: give the figure in nM, leave out the unit.

IC50 for Oc1ccc(-c2nc3ccccc3s2)cc1 ?
140

Continue with Oc1cccc(-c2nc3ccccc3s2)c1
50
